biological target: KRAS G13D (Homo sapiens, UniProt P01116+P62937, G13D); assay: Disruption of BRAF RBD interaction with Ras (FRET / MOA assay, with Cyclophilin A); assay type: biochemical; details: KRAS G13D; read-out: KRAS G13D FRET data IC50
Sequence (P01116 1-169 isoform P01116-2 G13D limits assumed): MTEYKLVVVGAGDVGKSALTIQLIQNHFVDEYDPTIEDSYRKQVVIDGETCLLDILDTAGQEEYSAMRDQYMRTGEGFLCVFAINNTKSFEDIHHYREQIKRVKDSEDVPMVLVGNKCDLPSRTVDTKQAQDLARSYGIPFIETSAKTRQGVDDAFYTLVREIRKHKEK
Sequence (P62937 whole entry): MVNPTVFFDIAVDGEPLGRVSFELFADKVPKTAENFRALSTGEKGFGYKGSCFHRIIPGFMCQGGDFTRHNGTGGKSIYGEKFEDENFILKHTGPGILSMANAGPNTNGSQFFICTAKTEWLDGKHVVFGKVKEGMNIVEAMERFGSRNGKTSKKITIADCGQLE
pIC50: −log10 of the molar value.
Listing: pIC50 of selected molecules
MEASURED_ENDPOINT: pIC50

>>> endpoint_result("CCn1c(-c2cnccc2COC)c2c3cc(ccc31)-c1cc(O)cc(c1)C[C@H](NC(=O)[C@H](C(C)C)N(C)C(=O)CN1CCOCC1)C(=O)N1CCC[C@H](N1)C(=O)OCC(C)(C)C2 [Example A65]")
"6.00 to 7.00"
>>> endpoint_result("C=CC(=O)N1CC[C@H](C(=O)Nc2ccccc2C(=O)N[C@H]2Cc3cc(O)cc(c3)-c3ccc4c(c3)c(c(-c3cnccc3COC)n4CC)CC(C)(C)COC(=O)[C@@H]3CCCN(N3)C2=O)C1 [Example A229]")
"7.00 to 8.00"
>>> endpoint_result("CCn1c(-c2cccnc2[C@H](C)OC)c2c3cc(ccc31)-c1csc(n1)C[C@H](NC(=O)[C@H](C(C)C)N1CCN(C)C1=O)C(=O)N1CCC[C@H](N1)C(=O)OCC(C)(C)C2 [Example A389]")
"5.00 to 6.00"
>>> endpoint_result("CCn1c(-c2cccnc2[C@H](C)OC)c2c3cc(ccc31)-c1cc(O)cc(c1)C[C@H](NS(=O)(=O)c1cnc[nH]1)C(=O)N1CCC[C@H](N1)C(=O)OCC(C)(C)C2 (racemic) [Example A192]")
"< 5.00"
>>> endpoint_result("CCn1c(-c2cnccc2COC)c2c3cc(ccc31)-c1cc(O)cc(c1)C[C@H](NC(=O)[C@H](C(C)C)N(C)C(=O)[C@H]1CCN(C(=O)C(C)C)C1)C(=O)N1CCC[C@H](N1)C(=O)OCC(C)(C)C2 [Example A29]")
"5.00 to 6.00"
>>> endpoint_result("CCn1c(-c2cccnc2[C@H](C)OC)c2c3cc(ccc31)-c1cc(C#N)cc(c1)C[C@H](NC(=O)[C@H](C(C)C)N(C)C(C)=O)C(=O)N1CCC[C@H](N1)C(=O)OCC(C)(C)C2 (atropisomer, axis not shown) [Example A430]")
"< 5.00"
>>> endpoint_result("C=CC(=O)N1CC[C@H](C(=O)N(C)[C@H](C(=O)N[C@H]2Cc3cc(O)cc(c3)-c3cnc4c(c3)c(c(-c3ccccc3CCOC)n4CC)CC(C)(C)COC(=O)[C@@H]3CCCN(N3)C2=O)C(C)C)C1 [Example A210]")
"< 5.00"
>>> endpoint_result("CCn1c(-c2cccnc2[C@H](C)OC)c2c3cc(ccc31)-c1csc(n1)C[C@H](NC(=O)[C@H](C(C)C)N(C)C(=O)N(C)[C@@H]1CCCN(C)C1)C(=O)N1CCC[C@H](N1)C(=O)OCC(C)(C)C2 [Example A587]")
"6.00 to 7.00"
>>> endpoint_result("C=CC(=O)N1CC[C@H](C(=O)N(C)[C@H](C(=O)N[C@H]2Cc3cc(O)cc(c3)-c3ccc4c(c3)c(c(-c3cnccc3COC)n4CC)CC(C)(C)COC(=O)[C@@H]3CCCN(N3)C2=O)C(C)C)C1 [Examples A028]")
"6.00 to 7.00"

Reference source for all entries: patent US20230233569A1
